Literature log10 Ki values, system: Melatonin receptor type 1B (Homo sapiens, UniProt P49286).
Sequence (P49286 whole entry): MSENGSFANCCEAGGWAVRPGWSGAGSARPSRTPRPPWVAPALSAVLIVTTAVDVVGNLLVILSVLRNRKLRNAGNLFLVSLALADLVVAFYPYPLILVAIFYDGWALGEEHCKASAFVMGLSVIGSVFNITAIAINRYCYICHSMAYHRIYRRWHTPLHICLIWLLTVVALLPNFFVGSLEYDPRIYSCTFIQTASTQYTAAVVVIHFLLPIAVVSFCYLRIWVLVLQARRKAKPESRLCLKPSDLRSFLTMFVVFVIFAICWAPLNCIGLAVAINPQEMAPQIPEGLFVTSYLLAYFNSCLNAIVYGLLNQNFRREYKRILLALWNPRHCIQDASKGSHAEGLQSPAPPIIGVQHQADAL
Kindly note that the scale is log10 and the underlying Ki is in nM.

Request: Any idea what log10 Ki came out for CCNC(=O)NC[C@@H]1C[C@H]1c1cccc2nc(C(C)C)oc12 on Melatonin receptor type 1B (Homo sapiens, UniProt P49286)?
Result: 1.10

Request: Fill in the recorded log10 Ki for this molecule, with Melatonin receptor type 1B (Homo sapiens, UniProt P49286) as test system: COc1ccc2oc(Cc3cc(C(F)(F)F)cc(C(F)(F)F)c3)c(CCNC(C)=O)c2c1
Result: 2.53

Request: Kindly state the measured log10 Ki obtained for CC(=O)NCCSc1ccccc1 with Melatonin receptor type 1B (Homo sapiens, UniProt P49286).
Result: 2.53

Request: Kindly state the measured log10 Ki obtained for CNc1nnc(CCc2c[nH]c3ccc(OC)cc23)o1 with Melatonin receptor type 1B (Homo sapiens, UniProt P49286).
Result: 2.04

Request: Notebook: pull reported log10 Ki for Melatonin receptor type 1B (Homo sapiens, UniProt P49286), entry CCC(=O)NCCCc1ccc(OCc2ccccc2)c(OC)c1
Result: 2.08

Request: What value of log10 Ki on Melatonin receptor type 1B (Homo sapiens, UniProt P49286) does COc1ccc2c(I)cn(CCNC(C)=O)c2n1 have?
Result: 0.70

Request: Notebook entry, Melatonin receptor type 1B (Homo sapiens, UniProt P49286) assay: log10 Ki of CCc1nc2cccc([C@@H]3C[C@H]3CNC(=O)C3CC3)c2o1 = ?
Result: -0.72

Request: Lookup: log10 Ki / Melatonin receptor type 1B (Homo sapiens, UniProt P49286) / CC(=O)NCCc1cccc2ccc(OCCCCOc3ccc4scc(CCNC(C)=O)c4c3)cc12
Result: 1.23

Request: // map CNC(=O)CCc1c(-c2ccccc2)nc2ccc(OC)cn12 to recorded log10 Ki (system: Melatonin receptor type 1B (Homo sapiens, UniProt P49286))
Result: 1.77

Request: Give recorded log10 Ki with Melatonin receptor type 1B (Homo sapiens, UniProt P49286) for the following molecule: COc1ccc2ccc(OC)c3c2c1CCC3CCNC(=O)C1CC1 (centres undefined)
Result: 0.20

Request: Which log10 Ki is reported with Melatonin receptor type 1B (Homo sapiens, UniProt P49286) for this entry: COc1cccc(S[C@@H](C)CNC(C)=O)c1 ?
Result: 0.85

Request: Test system Melatonin receptor type 1B (Homo sapiens, UniProt P49286); read-out log10 Ki; what value for CCC(=O)NCCC1CCc2c(OC)ccc3cccc1c23 (centres undefined) ?
Result: 0.61

Request: Give log10 Ki (Melatonin receptor type 1B (Homo sapiens, UniProt P49286)) of the following molecule: CC(=O)NC[C@@H]1C[C@H]1c1cccc2c1C[C@@H](CCCCc1ccccc1)O2
Result: 0.30

Request: Write down the reported log10 Ki of CC(=O)NCCc1cccc2ccc(OCCCCOc3ccc4[nH]cc(CCNC(C)=O)c4c3)cc12 , test system: Melatonin receptor type 1B (Homo sapiens, UniProt P49286).
Result: 1.93

Request: Checklist item: log10 Ki tested on Melatonin receptor type 1B (Homo sapiens, UniProt P49286), entry CC(=O)NCC(Cc1ccccc1)c1ccccc1 (centres undefined) , value?
Result: 2.62

Request: Melatonin receptor type 1B (Homo sapiens, UniProt P49286) / log10 Ki / COc1cccc2c1cc(CCNC(C)=O)n2-c1ccccc1 : value?
Result: 0.89

Request: Query the reported log10 Ki for Melatonin receptor type 1B (Homo sapiens, UniProt P49286); item: COc1cccc(OC[C@H](C)NC(C)=O)c1
Result: 2.48

Request: Missing value: log10 Ki, Melatonin receptor type 1B (Homo sapiens, UniProt P49286), entry NCCc1ccc(O)c(O)c1 . Fill in?
Result: 3.96

Request: # returns recorded log10 Ki (system: Melatonin receptor type 1B (Homo sapiens, UniProt P49286)) for COc1ccc2cccc3c2c1C(CCNC(C)=O)C3 (centres undefined)
Result: -0.23

Request: // lookup log10 Ki | system=Melatonin receptor type 1B (Homo sapiens, UniProt P49286) | key= CCCC(=O)Nc1ccc(Oc2cccc3c2OCCO3)cc1
Result: 0.67

Request: API: value(readout=log10 Ki, system=Melatonin receptor type 1B (Homo sapiens, UniProt P49286)) for record CC(=O)NCCc1cccc2ccc(OCCCCOc3ccc(-c4ccc(CO)cc4)cc3)cc12
Result: 0.81

Request: Record CCNC(=O)NC[C@@H]1C[C@H]1c1cccc2oc(CCCCc3ccccc3)cc12 : what is its log10 Ki with Melatonin receptor type 1B (Homo sapiens, UniProt P49286)?
Result: 1.95

Request: Notebook: pull reported log10 Ki for Melatonin receptor type 1B (Homo sapiens, UniProt P49286), entry CNC(=O)N[C@H]1CCN(c2cccc3c2CCO3)C1
Result: -0.03
